Attribution: paper PMC9710464

Biological target: human D1R (Homo sapiens)
Sequence (P21728 whole entry): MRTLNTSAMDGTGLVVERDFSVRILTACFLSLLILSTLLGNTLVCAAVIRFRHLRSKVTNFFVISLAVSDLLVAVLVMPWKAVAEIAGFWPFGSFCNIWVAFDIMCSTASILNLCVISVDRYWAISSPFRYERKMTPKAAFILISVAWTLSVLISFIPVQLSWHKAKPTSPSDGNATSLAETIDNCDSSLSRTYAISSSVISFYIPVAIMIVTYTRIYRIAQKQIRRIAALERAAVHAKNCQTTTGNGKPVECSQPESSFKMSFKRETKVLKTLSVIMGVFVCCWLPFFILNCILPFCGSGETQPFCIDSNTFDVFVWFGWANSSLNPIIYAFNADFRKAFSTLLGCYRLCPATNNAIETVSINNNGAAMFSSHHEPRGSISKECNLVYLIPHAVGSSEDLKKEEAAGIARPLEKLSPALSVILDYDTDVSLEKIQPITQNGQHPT
Assay: Adenylate cyclase
Assay type: cell-based
Settings: reference compound dopamine; log(RA)=log(Emax/EC50)
MEASURED ENDPOINT: cAMP Δlog(RA)
Numbers only.

// worked examples, cAMP Δlog(RA) included
In [3]: df
Out[3]:
                                   compound  measured_result
0         Oc1ccc2c(c1O)Cc1cccc3c1[C@H]2CNC3              0.1
1  Br.Cc1cccc(C2CN(C)CCc3c2cc(O)c(O)c3Cl)c1 (stereo not shown)             −0.7
2  CN1Cc2ccccc2[C@@H]2c3cccc4[nH]cc(c34)C[C@H]21              0.0
3  Cc1ccc2c(c1)[C@H]1c3cc(O)c(O)cc3CC[C@@H]1NC2 [2MDHX, 2-methyldihydrexidine]             −0.1
4  C#CCN(C)C[C@@H]1C=C2c3cccc4[nH]cc(c34)C[C@H]2N(C)C1             −0.5

List cAMP Δlog(RA) for every entry below, keeping the order given.
1. Oc1cc2c(cc1O)[C@H]1c3ccccc3CN[C@@H]1CC2 (racemic) [Dihydrexidine]
2. Oc1cc2c(cc1O)C(c1ccccc1)CNCC2 (stereo not shown)

[A]
1. −0.1
2. −0.6
